- SYSTEM: T1, biotin-labeled SIRPα (Acrobiosystems, Cat. No. CDA-H82F2), V1 genotype (human, UniProt P78324 31-370, biotin-labeled (site not stated))
- T1 construct: Bought protein; also called SIRPα (V1)
- T1 sequence (P78324 31-370 limits assumed): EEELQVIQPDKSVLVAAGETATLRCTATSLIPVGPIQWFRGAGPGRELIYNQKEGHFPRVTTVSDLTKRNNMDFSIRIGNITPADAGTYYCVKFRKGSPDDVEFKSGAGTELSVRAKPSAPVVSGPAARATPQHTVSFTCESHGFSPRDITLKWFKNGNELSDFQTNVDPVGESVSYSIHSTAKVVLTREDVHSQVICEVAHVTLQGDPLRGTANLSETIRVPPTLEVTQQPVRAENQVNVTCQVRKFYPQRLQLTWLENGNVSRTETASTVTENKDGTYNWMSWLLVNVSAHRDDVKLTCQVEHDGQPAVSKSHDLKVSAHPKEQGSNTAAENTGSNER
- TEST NAME: competition ELISA, blocking of biotin-labeled SIRPα binding to coated CD47-Fc (competitor CD47-Fc)

{"columns": ["BINDER", "IC50 [nM]"],
 "data": [
  ["#4 antibody (humanized anti-SIRPα antibody) (antibody, V domains shown, Full antibody as tested) VH: EVQLVQSGAEVKKPGATVKISCRGSGFNIKDYYIQWVQQAPGKGLEWMGWIDPENGDTKYAPKFQGRVTITADTSTDTAYMELSSLRSEDTAVYYCYAKGPYWGQGTTLTVSS VL: DIVMTQSPDSLAVSLGERATINCKSSQSLFYSSNQKNFLAWYQQKPGQPPKLLIYWASTRESGVPDRFTGSGSGTDFTLTISSVKAEDLAVYYCQQYYSYPPTFGGGTKLEIK", 6.03],
  ["#11 antibody (humanized anti-SIRPα antibody) (antibody, V domains shown, Full antibody as tested) VH: QVTLKESGPVLVKPTETLTLTCTVSGFSLSSHGVHWIRQPPGKALEWLAVIWSDGSTTYNSTLKSRLTISKDTSKSQVVLTMTNMDPVDTATYYCARHGNYHYNMDYWGQGTLVTVSS VL: DIQLTQSPSFLSASVGDRVTITCRTSSRVNSGYLHWYQQKPGKAPKLLIYSTSTLASGVPSRFSGSGSGTEFTLTISSLQPEDFATYYCQQYSSYPWTFGGGTKLEIK", 0.209],
  ["#14 antibody (humanized anti-SIRPα antibody) (antibody, human IgG1, kappa, N297A, V domains shown) VH: QVQLQESGPGLVKPSQTLSLTCTVSGGSISSGYYWSWIRQHPGKGLEWIGYISYDGSRYNNPSLKNRVTISVDTSKNQFSLKLSSVTAADTAVYYCAREEYANYFAYWGQGTTVTVSS VL: DIVMTQSPDSLAVSLGERATINCKSSQSLFYSSNQKNFLAWYQQKPGQPPKLLIYWASTRESGVPDRFTGSGSGTDFTLTISSVKAEDLAVYYCQQYYSYPPTFGQGTKLEIKR", 0.132],
  ["#13 antibody (humanized anti-SIRPα antibody) (antibody, V domains shown, Full antibody as tested) VH: QVQLVQSGSELKKPGASVKVSCKASGYTFTDYSIHWVRQAPGQGLEWMGWINTETGEPTYADDFKGRFVFSLDTSVSTAYLQICSLKAEDTAVYYCSRGPLYRYDGYGLEYWGQGTLVTVSS VL: DIVMTQSPDSLAVSLGERATINCKASQSVSNDVAWYQQKPGQPPKLLIYYASNRCTGVPDRFSGSGSGTDFTLTISSLQAEDVAVYYCHQDYISPYTFGGGTKLEIK", 1.5]
]}
